binders and their reported negLog10Kd
# target system: T1, human IL-4Rα (hIL-4Rα) monomeric protein (human, UniProt P24394 26-232, limits assumed)
# T1 construct: also called hIL-4Rα antigen; barcoded hIL-4Rα
# method description: Biacore (SPR); negative log10 of Kd

[[record]]
binder = "Table 1 Line # 25 antibody (SP_B_cell) (antibody, human IgG4, V domains shown, Cloned with human IgG4/human Igk constants for Kd; barcode counts are of the source cell's own IgG) VH: EVQLVESGGTVERPGGSLRLSCAASGFTFDDYGMSWVRQAPGKGLEWVSGTSWNGGHIGYADSVKGRFIISRDNAKNSLYLQINSLRVEDTALYYCTRDSTSSWYGVFDFWGQGTLVTVSS VL: DIQMTQSPSSLSASVGDRVTITCRASQDISINLAWYQQKPGKTPKLLIYAAASTLQSGVPSRFSGSGSGTDFTLTISSLQPEDVATYYCQNYNSAPRTFGQGTKVEIK"
value_kind = "negLog10Kd"
reported = 7.01

[[record]]
binder = "Table 1 Line # 12 antibody (BM_Plasma_cell) (antibody, human IgG4, V domains shown, Cloned with human IgG4/human Igk constants for Kd; barcode counts are of the source cell's own IgG) VH: QVQLVESGGGVVQPGRSLRLSCAASGFTFSSYGMHWVRQAPGKGLEWVSVISYDGSNKYYADSVKGRFTISRDNSKNTLFLQVNSLRAEDTAVYYCAKEGRTGFDYWGQGTLVTVSS VL: DIQMTQSPSSLSASVGDRVTITCRARQGISNYLAWFQQKPGKVPKLLIYAASTLQSGVPSRFSGSGSGTDFTLTISSLQPEDVATYYCQKYNSAPWTFGQGTKVEIK"
value_kind = "negLog10Kd"
reported = 7.46

[[record]]
binder = "Table 1 Line # 18 antibody (BM_Plasma_cell) (antibody, human IgG4, V domains shown, Cloned with human IgG4/human Igk constants for Kd; barcode counts are of the source cell's own IgG) VH: EVQLVQSGAEVKKPGESLKISCKGSGYRFTTNWIGWVRQMPGKGLEWMGIIYPDDSDTRYSPSFQGQVTISADKSINTAYLHWNSLKSSDTAIYYCARGANWFDPWGQGTLVTVSS VL: EIVLTQSPGILSLSPGKRATLSCRASQSVSSNFLAWYQQKPGQAPRLLIYGTSSRANGIPDRFSGSGSGTDFTLTISGLEPEDFAEYYCQQYGSSVTFGQGTRLEIK"
value_kind = "negLog10Kd"
reported = 7.38


Q: Entry Table 1 Line # 7 antibody (BM_Plasma_cell) (antibody, human IgG4, V domains shown, Cloned with human IgG4/human Igk constants for Kd; barcode counts are of the source cell's own IgG) VH: EVQLVESGGGLVQPGRSLRLSCAASGFTFDDYAMHWVRQAPGKGLEWVSGISWNGASIGYADSLKGRFTISRDNAKNSLYLQMNSLRSEDTALFYCARDYSSAWYGYFDYWGQGTLVTVSS VL: DIQMTQSPSSLSASVGDRVTITCRASQDISNYLAWYQQKPGKVPKLLIYAASTLQSGVPSRFSGSGSGTDFTLTISSLQPEDVATYYCQNYNSVPRTFGQGTKVEIK has what negLog10Kd?
A: 7.81

Q: Quick check: negLog10Kd of Table 1 Line # 40 antibody (SP_Plasma_cell) (antibody, human IgG4, V domains shown, Cloned with human IgG4/human Igk constants for Kd; barcode counts are of the source cell's own IgG) VH: QVQLQESGPGLVKPSETLSLTCTISGGSISTYYWSWIRQPPGKGLEWIGYIYYSGNTNYNPSLKSRVTISVDTSKNQFSLKLNSVTAADTAVYYCARHRGSYVYGMDVWGQGTTVTVSS VL: DIQMTQSPSSLSASLVDRVTITCRASQTISSYLNWYQQKPGKAPKLLIYGASILQSGVPSRFSGSGSGTDFTLTISSLQPEDHAVYFCQQSYSSPTFGGGTKVEIK ?
A: 6.93
